Reference for the values: BindingDB's records for doi:10.1021/bi7019707

Molecular target: UniProt:P21397
Sequence (P21397 whole entry): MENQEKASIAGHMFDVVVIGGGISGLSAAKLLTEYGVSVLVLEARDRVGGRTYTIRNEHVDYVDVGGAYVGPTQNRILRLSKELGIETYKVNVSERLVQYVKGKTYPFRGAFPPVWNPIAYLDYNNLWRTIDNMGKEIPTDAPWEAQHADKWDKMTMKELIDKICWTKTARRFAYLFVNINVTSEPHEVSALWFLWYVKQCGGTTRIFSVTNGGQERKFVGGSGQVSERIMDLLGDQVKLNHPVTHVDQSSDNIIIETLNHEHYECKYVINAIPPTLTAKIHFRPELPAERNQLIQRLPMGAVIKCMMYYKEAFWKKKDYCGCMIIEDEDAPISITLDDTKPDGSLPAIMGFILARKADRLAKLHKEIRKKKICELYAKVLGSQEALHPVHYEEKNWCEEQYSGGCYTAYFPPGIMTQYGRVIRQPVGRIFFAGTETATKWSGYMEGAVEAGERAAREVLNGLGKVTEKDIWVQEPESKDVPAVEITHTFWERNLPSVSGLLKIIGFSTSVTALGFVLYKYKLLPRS
Assay: Inhibition Assay
observed_property: Ki (µM)

# smiles_representation, units_text, result
data = [
    ("C#CCN(C)Cc1ccc(CC(=O)NC2CC(C)(C)N(O)C(C)(C)C2)cc1", "µM", 212),
]

* * *

Target: Amine oxidase [flavin-containing] A (Rattus norvegicus)
Sequence (P21396 whole entry): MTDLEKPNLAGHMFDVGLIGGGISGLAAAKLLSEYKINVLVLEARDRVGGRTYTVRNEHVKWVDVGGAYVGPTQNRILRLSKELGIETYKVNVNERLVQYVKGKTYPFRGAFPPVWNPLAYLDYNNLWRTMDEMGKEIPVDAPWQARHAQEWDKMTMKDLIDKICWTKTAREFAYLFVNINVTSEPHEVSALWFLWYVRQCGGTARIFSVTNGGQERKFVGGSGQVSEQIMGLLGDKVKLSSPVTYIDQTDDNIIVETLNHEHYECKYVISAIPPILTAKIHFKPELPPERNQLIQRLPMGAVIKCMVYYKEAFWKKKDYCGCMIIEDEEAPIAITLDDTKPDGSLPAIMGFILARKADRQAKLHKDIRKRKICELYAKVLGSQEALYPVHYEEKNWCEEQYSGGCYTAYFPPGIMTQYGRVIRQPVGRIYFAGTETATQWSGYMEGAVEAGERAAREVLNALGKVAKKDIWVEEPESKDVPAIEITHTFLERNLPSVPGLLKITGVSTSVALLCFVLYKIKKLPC
pKi: −log10 of the molar value.

# smiles_representation, pKi
rows = [
    ("C#CCN(C)Cc1ccc(CC(=O)NC2CC(C)(C)N(O)C(C)(C)C2)cc1", 3.82),
]
